# TEST SYSTEM: human olfactory receptor 2AG1 (hOR2AG1) protein (Homo sapiens)
# Construct: made in house; host or cells: Escherichia coli
# Sequence (Q9H205 whole entry): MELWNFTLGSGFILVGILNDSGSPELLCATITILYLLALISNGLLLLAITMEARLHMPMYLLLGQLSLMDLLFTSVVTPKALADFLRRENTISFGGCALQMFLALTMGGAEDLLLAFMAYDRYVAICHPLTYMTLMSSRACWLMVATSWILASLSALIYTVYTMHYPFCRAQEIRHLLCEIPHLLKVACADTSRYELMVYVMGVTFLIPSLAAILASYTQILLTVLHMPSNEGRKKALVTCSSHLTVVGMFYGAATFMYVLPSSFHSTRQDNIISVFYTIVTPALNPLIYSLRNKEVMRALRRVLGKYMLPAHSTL
# MEASUREMENT NOTES: Conductance (source-drain current) measurement of biosensor using hOR2AG1-functionalized swCNT transistors after introduction of odorants
# Type: biochemical
# TEST CONDITIONS: lipid membranes with hOR2AG1 on swCNT-FET; odorant solution in PBS; bias 100 mV
Listed next: entries and their corresponding Detection Limit.

MOLECULE: CCCOC(=O)CCC [Propyl butyrate (PB), propyl butyrate]
TEST SYSTEM: human olfactory receptor 2AG1 (hOR2AG1) protein (Homo sapiens)
Detection Limit (mM): 10

MOLECULE: CCCCOC(=O)CCC [Butyl butyrate (BB), butyl butyrate]
TEST SYSTEM: human olfactory receptor 2AG1 (hOR2AG1) protein (Homo sapiens)
Detection Limit (mM): 10

MOLECULE: CCCCCOC(=O)CCC [Amyl butyrate (AB), amyl butyrate]
TEST SYSTEM: human olfactory receptor 2AG1 (hOR2AG1) protein (Homo sapiens)
Detection Limit (mM): 1e-10

MOLECULE: CCCCCOC(=O)CCCC [Pentyl valerate (PV), pentyl valerate]
TEST SYSTEM: human olfactory receptor 2AG1 (hOR2AG1) protein (Homo sapiens)
Detection Limit (mM): 10
